Taken from PubChem BioAssay (NCI).

Documented growth across a set of compounds
Tested on: OVCAR-8 ovarian
assay.procedure: NCI-60 one-dose screen, 48 h (100 = growth as untreated, 0 = no growth, -100 = all killed)
study.conditions: 10 µM unless noted
This is part of a sample that, as a whole, favours compounds with a hit. Of some 83,000 tested, about 20% had one in any assay. Activity calls are given as the source filed them. The calls were made as follows: active = growth percent below 10; inactive = the rest.

compound	growth
COc1cccc(C=Nc2cc(C(C)C)c(O)cc2C)c1O	98.8% (inactive)
Cc1csc(C#Cc2cncc(O)c2)n1	102% (inactive)
COc1ccc2c(c1)sc1nc(-c3ccc(Br)cc3)cn12	102% (inactive)
CCCCCCC(CC#N)(CCC)CCCC (stereo not given)	105% (inactive)
O=C(Nc1cccc(-n2cc(-c3ccncc3)c(-c3cc(O)cc(Cl)c3)n2)c1)Nc1ccc(Cl)c(Cl)c1	-14.8% (active)
CN(C)c1ccc(-n2nc3ccccc3n2)cc1	97.3% (inactive)
Fc1ccccc1C1c2ccccc2-c2nccn21 (stereo not given)	95.8% (inactive)
COc1cccc(C2=NN(C(C)=O)C(c3cc(OC)c(OC)c(OC)c3)C2)c1 (stereo not given)	37.5% (inactive)
COc1cc(-c2nnc(-c3nc(-c4cc(OC)c(OC)c(OC)c4)n4ccccc34)o2)ccc1N	50.8% (inactive)
CC(=O)/C(=C/c1ccc(Cl)cc1)C(=O)c1ccccc1	89.2% (inactive)
CC(C)Sc1nc(Cl)c(C#N)c(-c2ccc(F)cc2)n1	97.1% (inactive)
O=C1c2cccc3c([N+](=O)[O-])ccc(c23)C(=O)N1CCCCl	-64.2% [100 µM] (active)
CC(C)N(Cc1ccccc1)c1c(S)ssc1=S	14.7% (inactive)
O=C(C(=O)c1cc(Br)ccc1O)c1cc(Br)ccc1O	64.2% (inactive)
CC(=O)N1N=C(c2ccc3c(c2)OCO3)CC1c1c(C)nn(-c2ccccc2)c1N(C)Cc1ccccc1 (stereo not given)	76.7% (inactive)
COc1cc(C2CC(C3C(=O)N(C)C(=O)N(C)C3=O)=NN2C=O)cc(OC)c1OC (stereo not given)	93.9% (inactive)
C/C(=C\CCc1ccoc1)CC/C=C(\C)CCCNc1ccc(F)cc1	101% (inactive)
CCSc1nc(Nc2ccc(S(=O)(=O)Nc3ccon3)cc2)c(C#N)c(-c2cccc(Br)c2)n1	91.2% (inactive)
C(=C1c2ccccc2-c2ccccc21)c1ccncc1	64.1% (inactive)
O=C1C2C(C(=O)N1CC[Se][Se]CCN1C(=O)C3C(C1=O)[C@H]1C=C[C@@H]3C1)[C@H]1C=C[C@@H]2C1 (stereo not given in full)	-80.7% (active)
COc1cc(/C=C/C(=O)CC(=O)/C=C/c2ccc(OC(=O)CCNC34CC5CC(CC(C5)C3)C4)c(OC)c2)ccc1OC(=O)CCNC12CC3CC(CC(C3)C1)C2	14.7% (inactive)
O=c1[nH]c(SCc2ccccc2)nc2nc(Nc3ccc(NC(=S)Nc4ccccc4)cc3)nc(-c3ccc(O)cc3O)c12	108% (inactive)
O=C(O)C1C(c2ccccc2)c2ccccc2C(O)C1CO (stereo not given)	103% (inactive)
Cc1onc(-c2ccccc2Cl)c1C(=O)N[C@@H]1C(=O)N2[C@@H]1SC(C)(C)[C@@H]2C(=O)O	106% (inactive)
N#Cc1c(-c2ccccc2)cc(-c2ccccc2)n(CCCCC(=O)O)c1=O	96% (inactive)
COC(=O)[C@H](CCCCNC(=O)OCc1ccccc1)NC(=O)[C@@H](NC(=O)Nc1cc(C(F)(F)F)cc(C(F)(F)F)c1)C(C)C	-22.1% [100 µM] (active)
Oc1c(Cl)cc(Cl)c(Cl)c1Cc1c(O)c(Cl)cc(Cl)c1Cl	7.43% (active)
O=C1NC(=S)S/C1=C\c1cc(Br)ccc1O	103% (inactive)
CCOc1cc(/C=C/C(=O)C(C(=O)/C=C/c2ccc(OC(=O)CNc3nc4ccccc4[nH]3)c(OCC)c2)C(=O)CNc2nc3ccccc3[nH]2)ccc1OC(=O)CNc1nc2ccccc2[nH]1	9.36% (active)
c1ccc2c(-c3nc4ccccc4[nH]3)cccc2c1	47.4% (inactive)
CN1CCN(c2nc3scc(-c4ccccc4)c3c(=O)[nH]2)CC1	106% (inactive)
O=C(CNC(=O)c1cccc2ccccc12)Nc1ccccc1Oc1ccc(O)cc1	28.4% [5 µM] (inactive)
COc1cc(/C=C/c2cc(/C=C/c3ccc(O)c(OC)c3)n(C(=O)c3ccc(Cl)cc3)n2)ccc1O	29.1% (inactive)
Nc1nc(NC2CC2)c2ncn(C3C=CC(CO)C3)c2n1 (stereo not given)	93.9% (inactive)
CCOc1cc(/C=C/C(=O)CC(=O)/C=C/c2ccc(OC(=O)CNCCN(CC)CC)c(OCC)c2)ccc1OC(=O)CNCCN(CC)CC	4.23% (active)
N#CC(C#N)C(C#N)C#N	97.4% (inactive)
C/C(=C\CCc1ccoc1)CC/C=C(\C)CCCC1COC(=O)C1 (stereo not given)	95.6% (inactive)
COC(=O)C1=CCC(n2cnc3c(N)ncnc32)O1 (stereo not given)	96.3% (inactive)
COc1cc(/C=C2\CN(C)CC3=C2Nc2nc(SC)[nH]c(=O)c2C3c2cc(OC)c(OC)c(OC)c2)cc(OC)c1OC (stereo not given)	1.09% (active)
CC(=O)N1N=C(c2ccc(Nc3ccnc4cc(Cl)ccc34)cc2)CC1c1ccc(Cl)cc1 (stereo not given)	66.9% (inactive)
